Consider the following GI50 values measured on MCF7 cells.
Numeric answer only, unit nM assumed.

- COMPOUND: "CC[C@H](O)[C@@H](C)[C@H]1O[C@@H]1C[C@H](C)/C=C/C=C(\\C)[C@H]1OC(=O)C[C@H](O)CC[C@@](C)(OC)[C@@H](OC(=O)N2CCNCC2)/C=C/[C@@H]1C"
  UNIT TEXT: "nM"
  GI50: 0.883
- COMPOUND: "CC(=O)N1CCC(n2nnc3c(F)cc(/C=C(\\C)[C@H]4OC(=O)C[C@H](O)CC[C@H](C)[C@@H](OC(=O)N5CCN(C)CC5)/C=C/[C@@H]4C)cc32)CC1"
  UNIT TEXT: "nM"
  GI50: 0.961
- COMPOUND: "CC[C@H](O)[C@@H](C)[C@H]1O[C@@H]1C[C@@](C)(O)/C=C/C=C(\\C)[C@H]1OC(=O)C[C@H](O)CC[C@@](C)(OC)[C@@H](OC(=O)N2CCN(C)CC2)/C=C/[C@@H]1C [D2]"
  UNIT TEXT: "nM"
  GI50: 2.85
- COMPOUND: "CC[C@H](O)[C@@H](C)C1OC1C[C@@](C)(O)/C=C/C=C(\\C)[C@H]1OC(=O)C[C@H](O)CC[C@@](C)(OC(C)=O)[C@@H](OC(=O)N2CCNCC2)/C=C/[C@@H]1C (stereo in doubt)"
  UNIT TEXT: "nM"
  GI50: 11.4
- COMPOUND: "CC[C@H](O)[C@@H](C)[C@H]1O[C@@H]1C[C@@](C)(O)/C=C/C=C(\\C)[C@H]1OC(=O)C[C@H](O)CC[C@@](C)(OC(=O)N2CCNCC2)[C@@H](OC(C)=O)/C=C/[C@@H]1C"
  UNIT TEXT: "nM"
  GI50: 29.6
- COMPOUND: "CC(=O)N1CCC(n2nnc3c(F)cc(/C=C(\\C)[C@H]4OC(=O)C[C@H](O)CC[C@H](C)[C@@H](OC(=O)N5CCNCC5)/C=C/[C@@H]4C)cc32)CC1"
  UNIT TEXT: "nM"
  GI50: 5.29

API: the following record is the query input.
[Q] Consider the compound CC[C@H](O)[C@@H](C)C1OC1C[C@@](C)(O)/C=C/C=C(\C)[C@H]1OC(=O)C[C@H](O)CC[C@@](C)(OC)[C@@H](OC(=O)N2CCNCC2)/C=C/[C@@H]1C (stereo in doubt) [D1] and give its recorded GI50.
[A] 17
